These entries and their values trace back to patent US11384060B2.

target.of.assay: glucagon receptor (GCGR) overexpressed CHO-K1 cells or human primary hepatocytes (Homo sapiens, UniProt P47871)
Construct: expressed in transfected cells; host or cells: GCGR overexpressed CHO-K1 cells or human primary hepatocytes (endogenous receptor)
measurement.notes: Glucagon cAMP inhibition assay (Cisbio cAMP Dynamic 2 HTRF)
Assay type: cell-based
quantity.measured: IC50 cAMP (nM)

Here is how some compounds turned out for IC50 cAMP.
CC[C@H](C)[C@@H](COc1ccc(-c2cc3ccccc3o2)c(C)n1)Nc1ccc(C(=O)NCCC(=O)O)cc1 [Compound 18-4]: 151
CCOC(=O)CCNC(=O)c1ccc(N[C@H](Cc2ccc(-c3ccc(C(C)(C)C)cc3)cc2)C(=O)Nc2ccc(C(F)(F)F)cc2)cc1 [Compound 24-15]: 7988
CC(C)C[C@H](Nc1ccc(C(=O)NCCC(=O)O)cc1)C(=O)Nc1ccc(-c2cc3ccccc3o2)cc1 [Compound 23-5]: 3500
CCCOC[C@H](Cc1ccc(-c2cccc(C(F)(F)F)c2)cc1)Nc1ccc(C(=O)NCCC(=O)O)cc1 [Compound 19-23]: 1126
CCOC(=O)CCNC(=O)c1ccc(N[C@@H](Cc2ccccc2)C(=O)Nc2ccc(-c3ccc(Cl)cc3Cl)cc2)cc1 [Compound 23-15]: 6300

[P] CC(C)[C@@H](COc1ccc(-c2ccc(Cl)cc2Cl)cn1)Nc1ccc(C(=O)NCCC(=O)O)cc1 [Compound 15-17]
[Q] CC(C)COC[C@H](Cc1ccc(-c2cc(F)c(F)c(F)c2)cc1)Nc1ccc(C(=O)NCCC(=O)O)cc1 [Compound 19-31]
[R] CC(C)C[C@H](Cc1ccc(-c2ccc(C(C)(C)C)cc2)cc1)Nc1ccc(C(=O)NCCC(=O)O)cc1 [Compound 19-8]
[S] CC(C)C[C@@H](COc1ccc(-c2ccc(C(F)(F)F)cc2)cn1)Nc1ccc(C(=O)NCCC(=O)O)cc1 [Compound 15-11]
[T] O=C(O)CCNC(=O)c1ccc(N[C@@H](Cc2ccc3ccccc3c2)C(=O)Nc2ccc(-c3cc4ccccc4o3)cc2)cc1 [Compound 23-22]
Rank the items in ascending order with respect to IC50 cAMP. // format: requested-order list of labels
P, S, R, Q, T
(P: 196 nM, S: 284.7 nM, R: 877 nM, Q: 1341 nM, T: 32100 nM)

[A] CC(C)(C)c1ccc(-c2ccc(C[C@@H](Nc3ccc(C(=O)NCCC(=O)O)cc3)C(=O)Nc3ccc(OC(F)(F)F)cc3)cc2)cc1 [Compound 24-26]
[B] CC[C@H](C)[C@@H](COc1ccc(-c2ccc(F)cc2F)cn1)Nc1ccc(C(=O)NCCC(=O)O)cc1 [Compound 15-20]
[C] CCCC[C@@H](COc1ccc(-c2ccc(Cl)cc2Cl)cn1)Nc1ccc(C(=O)NCCC(=O)O)cc1 [Compound 15-24]
hey, can you rank those compounds up there by IC50 cAMP? biggest number first please # list labels per requested ordering
B, A, C

[1] CCC(C)[C@H](Nc1ccc(C(=O)NCCC(=O)O)cc1)c1nnc(-c2ccc(C(C)(C)C)cc2)o1 (stereo partly drawn) [Compound 20-3]
[2] Cc1nc(OC[C@H](CC(C)C)Nc2ccc(C(=O)NCCC(=O)O)cc2)ccc1-c1ccc(Cl)cc1Cl [Compound 18-8]
Hello, I am sorting some records. Could you say if 1 or 2 has the smaller IC50 cAMP value? Select an item and report its label.
2
(2: 122.5 nM, 1: 9163 nM)

[P] Cc1nc(OC[C@H](CC(C)C)Nc2ccc(C(=O)NCCC(=O)O)cc2)ccc1-c1cc2ccccc2o1 [Compound 18-9]
[Q] CC(C)COC[C@@H](Cc1ccc(-c2ccc(C(F)(F)F)cc2)cc1)Nc1ccc(C(=O)NCCC(=O)O)cc1 [Compound 19-18]
[R] CC(C)[C@@H](COc1ccc(-c2ccc(C(F)(F)F)cc2)cn1)Nc1ccc(C(=O)NCCC(=O)O)cc1 [Compound 15-7]
[S] CCCOC[C@H](Cc1ccc(-c2ccc(Cl)cc2Cl)cc1)Nc1ccc(C(=O)NCCC(=O)O)cc1 [Compound 19-15]
Ordering criterion: IC50 cAMP; begin with the maximum. Kindly provide the labels arranged according to the requested ordering.
S, Q, P, R

[A] CC(C)COC[C@@H](Cc1ccc(-c2cc3ccccc3o2)cc1)Nc1ccc(C(=O)NCCC(=O)O)cc1 [Compound 19-21]
[B] CCCOC[C@H](Cc1ccc(-c2cc3ccccc3o2)cc1)Nc1ccc(C(=O)NCCC(=O)O)cc1 [Compound 19-26]
Of the pair A and B , name the member with the lesser recorded IC50 cAMP. # reply format: chosen label
A

* * *

target.of.assay: glucagon receptor (GCGR) (Homo sapiens)
Construct: expressed in transfected cells; host or cells: CHO-K1 cells overexpressing GCGR (membrane fractions)
measurement.notes: I125-glucagon binding assay (competition, GCGR membrane fractions)
pIC50: −log10 of the molar value.
quantity.measured: pIC50

[I] CCCOC[C@H](Cc1ccc(-c2cccc(OC(F)(F)F)c2)cc1)Nc1ccc(C(=O)NCCC(=O)O)cc1
[II] CC(C)C[C@@H](COc1ccc(-c2ccc(C(F)(F)F)cc2Cl)cn1)Nc1ccc(C(=O)NCCC(=O)O)cc1
For the pair I and II , which entry has the numerically smaller recorded pIC50? State the label of the item chosen.
I

* * *

target.of.assay: glucagon receptor (GCGR) (Homo sapiens, UniProt P47871)
Construct: expressed in transfected cells; host or cells: CHO-K1 cells overexpressing GCGR (membrane fractions)
Sequence (P47871 26-477): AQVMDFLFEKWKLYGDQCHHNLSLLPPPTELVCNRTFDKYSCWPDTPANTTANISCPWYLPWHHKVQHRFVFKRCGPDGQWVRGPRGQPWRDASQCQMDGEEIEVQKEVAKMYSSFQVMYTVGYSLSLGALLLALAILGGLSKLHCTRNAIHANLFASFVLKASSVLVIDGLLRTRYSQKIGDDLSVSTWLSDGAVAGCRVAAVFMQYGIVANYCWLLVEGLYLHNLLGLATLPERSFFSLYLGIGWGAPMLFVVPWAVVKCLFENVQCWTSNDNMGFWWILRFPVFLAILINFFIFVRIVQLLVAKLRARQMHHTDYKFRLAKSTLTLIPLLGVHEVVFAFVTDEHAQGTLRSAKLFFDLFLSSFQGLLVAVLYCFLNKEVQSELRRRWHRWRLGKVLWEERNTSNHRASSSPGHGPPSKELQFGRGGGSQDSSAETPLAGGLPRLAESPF
measurement.notes: I125-glucagon binding assay (competition, GCGR membrane fractions)
quantity.measured: IC50 (µM)

CCOC(=O)CCNC(=O)c1ccc(N[C@H](Cc2ccc(-c3cc4ccccc4o3)cc2)C(=O)Nc2cc(F)cc(F)c2)cc1: 0.168

[I] CC(C)C[C@H](Nc1ccc(C(=O)NCCC(=O)O)cc1)C(=O)Nc1ccc(-c2ccc(C(F)(F)F)cc2)cc1
[II] CC(C)C[C@H](Nc1ccc(C(=O)NCCC(=O)O)cc1)C(=O)Nc1ccc(-c2cc3ccccc3[nH]2)cc1
Given the listed items, does I or II have the lesser reported IC50? Record your answer as the label of the chosen record.
II

* * *

target.of.assay: glucagon receptor (GCGR) overexpressed CHO-K1 cells or human primary hepatocytes (Homo sapiens, UniProt P47871)
Construct: expressed in transfected cells; host or cells: GCGR overexpressed CHO-K1 cells or human primary hepatocytes (endogenous receptor)
measurement.notes: Glucagon cAMP inhibition assay (Cisbio cAMP Dynamic 2 HTRF)
Format: cell-based
particulars: inhibition of glucagon (EC50 concentration) induced cAMP production
quantity.measured: IC50 cAMP (nM)

CC[C@H](C)[C@@H](COc1ccc(-c2ccc(C(F)(F)F)cc2F)nc1)Nc1ccc(C(=O)NCCC(=O)O)cc1 [Compound 10-14]: 497.1
CC(C)C[C@@H](COc1ccc(-c2ccc(C(F)(F)F)cc2Cl)nc1)Nc1ccc(C(=O)NCCC(=O)O)cc1 [Compound 10-18]: 880

[P] Cc1cc(OC[C@@H](Nc2ccc(C(=O)NCCC(=O)O)cc2)C(C)C)cc(C)c1-c1ccc(C(F)(F)F)cc1Cl [Compound 2-11]
[Q] CCCC[C@@H](COc1ccc(-c2ccc(C(F)(F)F)cc2)cc1)Nc1ccc(C(=O)NCc2nnn[nH]2)cc1 [Compound 1-16]
[R] Cc1cc(OC[C@H](CC(C)C)Nc2ccc(C(=O)NCCC(=O)O)cc2)cc(C)c1-c1ccc(OC(F)(F)F)cc1 [Compound 2-3]
[S] CC[C@H](C)[C@@H](COc1cc(Cl)c(-c2ccc(C(F)(F)F)cc2Cl)cc1Cl)Nc1ccc(C(=O)NCCC(=O)O)cc1 [Compound 3-20]
Parameters: sort_field (IC50 cAMP), sort_dir (desc). Reply format: the labels, ordered as requested.
Q, R, P, S
(Q: 948.8 nM, R: 493 nM, P: 277.2 nM, S: 44 nM)

* * *

target.of.assay: glucagon receptor (GCGR) overexpressed CHO-K1 cells or human primary hepatocytes (Homo sapiens, UniProt P47871)
Construct: expressed in transfected cells; host or cells: GCGR overexpressed CHO-K1 cells or human primary hepatocytes (endogenous receptor)
measurement.notes: Glucagon cAMP inhibition assay (Cisbio cAMP Dynamic 2 HTRF)
Format: cell-based
particulars: inhibition of glucagon (EC50 concentration) induced cAMP production
quantity.measured: IC50 cAMP (µM)

CC(C)[C@@H](COc1ccc(-c2cn3ccccc3n2)cc1)Nc1ccc(C(=O)NCCC(=O)O)cc1 [Compound 1-39]: 17.895

[P] CC(C)[C@@H](CSc1ccc(-c2cc3ccccc3o2)cc1)Nc1ccc(C(=O)NCCC(=O)O)cc1 [Compound 5-1]
[Q] CCOC[C@@H](COc1ccc(-c2cc3ccccc3o2)cc1)Nc1ccc(C(=O)NCCC(=O)O)cc1 [Compound 6-3]
Short answer wanted: higher IC50 cAMP, P or Q ? Please indicate the selected item by its label.
P

* * *

target.of.assay: glucagon receptor (GCGR) overexpressed CHO-K1 cells or human primary hepatocytes (Homo sapiens, UniProt P47871)
Construct: expressed in transfected cells; host or cells: GCGR overexpressed CHO-K1 cells or human primary hepatocytes (endogenous receptor)
measurement.notes: Glucagon cAMP inhibition assay (Cisbio cAMP Dynamic 2 HTRF)
Format: cell-based
particulars: inhibition of glucagon (EC50 concentration) induced cAMP production
quantity.measured: IC50 cAMP (nM)

CCCC[C@@H](COc1ccc(-c2ccc(Cl)cc2Cl)cc1)Nc1ccc(C(=O)NCc2nnn[nH]2)cc1: 1564
CCCC[C@@H](COc1ccc(-c2cc3ccccc3o2)cc1)Nc1ccc(C(=O)NCCC(=O)O)cc1: 629.8

[1] CCC(C)[C@@H](COc1cnc(-c2ccc(Cl)cc2Cl)nc1)Nc1ccc(C(=O)NCCC(=O)O)cc1 (some centres unmarked)
[2] CC[C@H](C)[C@@H](COc1ccc(-c2ccc(C(F)(F)F)cc2Cl)c(OC)c1)Nc1ccc(C(=O)NCCC(=O)O)cc1
From the items above, decide which of 1 and 2 has the lower IC50 cAMP reading. Lab log: write the label of the selected item as the result.
2

[I] CC(C)C[C@@H](COc1ccc(-c2ccc(Cl)cc2Cl)nc1)Nc1ccc(C(=O)NCCC(=O)O)cc1
[II] CC[C@H](C)[C@@H](COc1ccc(-c2ccc(C(F)(F)F)cc2F)c(OC)c1)Nc1ccc(C(=O)NCCC(=O)O)cc1
Please let me know which one, I or II , has a lower measured IC50 cAMP value. Response format: the label of the selected entry.
II

[P] CC(C)[C@@H](COc1cnc(-c2cc3ccccc3o2)nc1)Nc1ccc(C(=O)NCCC(=O)O)cc1
[Q] CC(C)[C@@H](COc1cnc(-c2ccc(C(F)(F)F)cc2Cl)nc1)Nc1ccc(C(=O)NCCC(=O)O)cc1
Short answer wanted: higher IC50 cAMP, P or Q ? Please indicate the selected item by its label.
Q
(Q: 9828 nM, P: 6849 nM)

[1] CCCC[C@@H](COc1ccc(-c2ccc(Cl)cc2Cl)c(Cl)c1)Nc1ccc(C(=O)NCc2nnn[nH]2)cc1
[2] CC[C@H](C)[C@@H](COc1cc(Cl)c(-c2ccc(C(F)(F)F)cc2F)cc1Cl)Nc1ccc(C(=O)NCCC(=O)O)cc1
[3] CC(C)[C@@H](COc1ccc(-c2cc3ccccc3o2)nn1)Nc1ccc(C(=O)NCCC(=O)O)cc1
[4] CC(C)[C@@H](COc1ccc(-c2nc3ccccc3s2)cc1)Nc1ccc(C(=O)NCCC(=O)O)cc1
List by increasing IC50 cAMP. Order the labels as requested and give them as your answer.
4, 1, 2, 3
(4: 152 nM, 1: 279.9 nM, 2: 653 nM, 3: 10741 nM)
